experimental-target: T1, recombinant biotinylated human PAR2 extracellular domain (residues 1-75), N-terminal AviTag, C-terminal Flag … (human, UniProt P55085 26-75, biotin on the AviTag (enzymatic biotinylation))
T1 construct: also called Bio-human-PAR2 ECD; human PAR2 ECD; not shown: N-terminal AviTag (Avidity LLC); C-terminal Flag and poly Histidine tags
T1 sequence (P55085 26-75): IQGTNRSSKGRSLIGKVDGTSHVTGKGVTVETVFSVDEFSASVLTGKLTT
experiment: HTRF competition with Par0067 IgG, scFv
Method: 5 μl/well of the appropriate pH 4.44 nM Par0067 IgG solution was added to all wells of the relevant assay plate (pH 7.4 and pH 6.0). […] For multipoint dose response curves % Specific Binding values were plotted versus test purified antibody concentration (scFv or IgG). IC₅₀ values were determined via a sigmoidal dose response inhibition variable slope curve fit (4 parameter logistic equation) using Graphpad Prism Software.
Below is a list of entries, each paired with its recorded Fold IC50 (pH 6.0 v pH 7.4) value.
Write the value in fold as a bare number.

binder | Fold IC50 (pH 6.0 v pH 7.4) [fold]
PaB670089 scFv (scFv, V domains shown, purified scFv; also called ZZ1ODR-C05) VH: EVQLLESGGGLVQPGGSLRLSCAASGFTFSSYAMNWVRQAPGKGLEWVSTISYHGSHISHADHVHGRFTISRDNSKNTLYLQMNSLRAEDTAVYYCARINNDPMDVWGQGTLVTVSS VL: SIELTQPPSVSVSPGQTASITCSGDNLGKKYVQWYQQKPGQSPVLVIYDDSNRPSGIPERFSGSNSGNTATLTISGTQAMDEADYYCQTWDGNPTTGETNVFGGGTKLTVL | 4.5

If you can, please state the reported Fold IC50 (pH 6.0 v pH 7.4) value of PaB670080 scFv (scFv, V domains shown, purified scFv) VH: EVQLLESGGGLVQPGGSLRLSCAASGFTFSSYAMNWVRQAPGKGLEWVSTISYSGSLISYADSVKGRFTISRDNSKNTLYLQMNSLRAEDTAVYYCARINNDPMDVWGQGTLVTVSS VL: SIELTQPPSVSVSPGQTASITCSGDNLGKKYVQWYQQKPGQSPVLVIYDDSNRPSGIPERFSGSNSGNTATLTISGTQAMDEADYYCQTWDGHHHTGETNHFGGGTKLTVL . 9.5

Item: PaB670091 scFv (scFv, V domains shown, purified scFv; also called ZZ1ODR-G02) VH: EVQLLESGGGLVQPGGSLRLSCAASGFTFSSYAMNWVRQAPGKGLEWVSTISHSGHLIHHHHSVKGRFTISRDNSKNTLYLQMNSLRAEDTAVYYCARINNDPMDVWGQGTLVTVSS VL: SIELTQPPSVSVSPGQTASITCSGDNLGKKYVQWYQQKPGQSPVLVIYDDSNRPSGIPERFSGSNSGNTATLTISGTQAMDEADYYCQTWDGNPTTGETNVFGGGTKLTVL 3.9
